Source: patent US20220380768A1

tested_system: T1, human CD22 on B cells of human PBMCs (human, UniProt P20273 20-847)
T1 construct: whole, on cells; also called CD22 on human B cells
experiment_notes: flow cytometry; Alexa Fluor 647-labelled antibody, human PBMCs
measure_name: CD22: CD20+/CD20- (ratio of median fluorescent intensity) (fold)

TNT78 (antibody, human IgG1, kappa, V domains shown) VH: QVQLLESGGGVVQPGGSLRLSCAASGFAFSIYDMNWVRQAPGKGLEWVSAISSGGGTTYYADSVKGRFTISRDNAKNSLYLQMNSLRAEDTAVYYCARHSGYGTHWGVLFAYWGRGTLVTVSS VL: DIQMTQSPSSLSASVGDRVTITCRASQSISSYLNWYQQKPGKAPKLLIYAASSLQSGVPSRFSGSGSGTDFTLTISSLQPEDFATYYCQQGNTLPWTFGQGTKLEIKR: 19.8
TNT77 (antibody, human IgG1, kappa, V domains shown) VH: EVQLVESGGGLVQPGGSLRLSCAASGFAFSIYDMSWVRQAPGKGLEWVAYISSGGGTTYYPDTVKGRFTISRDNSKNTLYLQMNSLRAEDTAVYYCARHSGYGTHWGVLFAYWGRGTLVTVSS VL: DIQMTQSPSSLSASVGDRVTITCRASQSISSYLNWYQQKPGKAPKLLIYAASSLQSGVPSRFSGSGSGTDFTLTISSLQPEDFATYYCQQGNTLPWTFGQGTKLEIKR: 20.9
TNT88 (antibody, human IgG1, kappa, V domains shown) VH: QVQLQESGPGLVKPSDTLSLTCTVSGFAFSIYDMSWIRQPPGKGLEWIAYISSGGGTTYYNPSLKSRVTISVDTSKNQFSLKLSSVTAADTAVYYCARHSGYGTHWGVLFAYWGRGTLVTVSS VL: DIVMTQTPLSLSVTPGQPASISCRASQDIHGYLNWYQQKPGQSPQLLIYYTSILHSGVPDRFSGSGSGTDFTLKISRVEAEDVGVYFCQQGNTLPWTFGGGTKLEIKR: 26.2
